Target sequence: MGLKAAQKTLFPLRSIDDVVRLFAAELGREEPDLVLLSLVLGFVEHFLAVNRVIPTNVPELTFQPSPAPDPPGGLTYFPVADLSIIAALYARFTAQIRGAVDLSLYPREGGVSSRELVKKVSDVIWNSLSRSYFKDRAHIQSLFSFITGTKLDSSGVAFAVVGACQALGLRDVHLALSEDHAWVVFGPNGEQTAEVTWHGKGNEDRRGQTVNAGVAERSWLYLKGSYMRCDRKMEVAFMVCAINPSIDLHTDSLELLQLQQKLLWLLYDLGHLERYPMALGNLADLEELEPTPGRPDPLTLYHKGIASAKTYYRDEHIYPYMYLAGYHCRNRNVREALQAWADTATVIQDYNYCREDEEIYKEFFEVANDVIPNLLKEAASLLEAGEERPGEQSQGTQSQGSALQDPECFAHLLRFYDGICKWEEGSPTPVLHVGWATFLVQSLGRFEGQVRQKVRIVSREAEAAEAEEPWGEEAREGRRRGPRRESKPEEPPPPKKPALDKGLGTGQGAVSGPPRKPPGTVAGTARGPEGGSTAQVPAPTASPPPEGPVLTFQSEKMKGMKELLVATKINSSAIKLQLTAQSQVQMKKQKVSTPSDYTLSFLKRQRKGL
property measured: IC50 (nM)

CCN(C(=O)c1cc(F)ccc1-n1c(C)c(C(=O)[C@@H]2CCN(C(=O)[C@@H]3CCC4(CC4)N3)[C@@H](C)C2)c2ccncc21)C(C)C (single isomer, unassigned; form 1) [US20240335431, Example 52-1]
16

(P) CC(C)N(C(=O)c1cc(F)ccc1-n1cc(C(=O)C2CCN(C[C@H]3CC[C@H](NS(C)(=O)=O)CC3)CC2)c2ccncc21)C(C)C
(Q) CC(C)c1cnccc1-c1cc(F)ccc1-n1cc(C(=O)C2CN(C(=O)[C@H]3N[C@@H]4CC[C@H]3C4)C2)c2ccncc21
(R) C[C@@H]1CCC[C@H](C)N1C(=O)c1cc(F)ccc1-n1cc(C(=O)C2CCN(C(=O)[C@H]3N[C@@H]4CC[C@H]3C4)CC2)c2ccncc21
(S) Cc1c(C(=O)C2CCN(C(=O)[C@@H]3CCC(C)(C)N3)CC2)c2ccncc2n1-c1ccc(F)cc1C(=O)N(C(C)C)C(C)C (single isomer, unassigned)
In: In this exercise, place the 4 compounds in ascending sequence of their recorded IC50. # the answer lists labels in the order requested
Out: Q, P, R, S
